meta.source: PubChem BioAssay (NCI)

Test system: HS 578T breast
Test: NCI tumour cell line growth inhibition, 48 h
Property name: TGI

{"columns": ["Compound", "Property name", "Meas value"],
 "data": [
  ["CC(=O)OCC(OC(C)=O)C(OC(C)=O)C(/C=N\\Nc1nc2ccccc2c(=O)[nH]1)=N\\Nc1nc2ccccc2c(=O)[nH]1 (stereo unspecified)", "TGI", "> 100 µM"],
  ["COc1ccc(/C=C(/C(=O)N2CCN(c3ccccc3)CC2)c2cc(OC)c(OC)c(OC)c2)cc1N", "TGI", "> 100 µM"],
  ["Nc1c(C(=O)c2ccc(-c3cccnc3)cc2)cnn1-c1ccc(F)cc1", "TGI", "> 25 µM"],
  ["Cc1ccc(S(=O)(=O)N2CCN(S(=O)(=O)c3ccc(C)cc3)CCN(S(=O)(=O)c3ccc(C)cc3)Cc3cc(C#N)c(C#N)cc3CN(S(=O)(=O)c3ccc(C)cc3)CC2)cc1", "TGI", "> 100 µM"],
  ["COC(=O)CCC(C)[C@H]1CCC2C3C(C[C@H](OC(C)=O)[C@@]21C)[C@@]1(C)CCC2(C[C@H]1C[C@H]3OC(C)=O)OOC1(CCCC1)OO2 (stereo partly specified)", "TGI", "> 100 µM"],
  ["O=C(NC(Cl)(C(F)(F)F)C(F)(F)F)c1ccc(F)cc1", "TGI", "> 100 µM"]
]}

* * *

Tested on: SF-539 CNS
Experiment: NCI tumour cell line growth inhibition, 48 h
*1 amine or outer side, *2 acyl side, *3 side chain or, on linkers, in order; H or OH if unused. Where a SMILES comes first, the peptide text is derived from it. [ ]: non-standard residue; d: D form. The star is where a group is joined. ξ: configuration not given here. X27 = O=C([C@H]1CCC[C@H]1N[*:1])[*:2]; ξW = NC(Cc1c[nH]c2ccccc12)C(=O)O; ξF = NC(Cc1ccccc1)C(=O)O; Boc = CC(C)(C)OC(=O)*; ξK = NCCCCC(N)C(=O)O; ξT = CC(O)C(N)C(=O)O; tBu = CC(C)(C)*
Label 1.0 when TGI is at or above 4 µM; anything below gets 0.0.

{"columns": ["Compound", "Class assignment"],
 "data": [
  ["CC(=O)Nc1ccc(NS(=O)(=O)c2ccc3nc(C)n(NS(=O)(=O)c4ccc(NC(C)=O)cc4)c(=O)c3c2)cc1", 1.0],
  ["Cc1sc2[nH]c(=O)oc(=O)c2c1C", 1.0],
  ["O=C(O)CSCc1cc2c(O)c(c1)Cc1cc(CSCC(=O)O)cc(c1O)Cc1cc(CSCC(=O)O)cc(c1O)Cc1cc(CSCC(=O)O)cc(c1O)C2", 1.0],
  ["CCCCCCCCCCCCCCCCCCNc1ccn(C2OC(COP(=O)(O)OCC3OC(n4cc(C)c(=O)[nH]c4=O)CC3F)C(O)C2O)c(=O)n1 (centres undefined)", 1.0],
  ["O=C1c2[nH]cc(CNC3CN4CCC3CC4)c2C(=O)c2c1c(O)c1ccccc1c2O (centres undefined)", 0.0],
  ["CC(=O)OCC(C)C1=C(OC(C)=O)C(=O)C2(C)C/C=C(/C)CC/C=C(\\C)CCC(OC(C)=O)C(C)CCC12 (centres undefined)", 1.0],
  ["O=[N+]([O-])c1ccc2nc(Cl)n[n+]([O-])c2c1", 1.0],
  ["c1ccc([CH2][Sn]([CH2]c2ccccc2)([O]c2cccc3cccnc23)[O]c2cccc3cccnc23)cc1", 0.0],
  ["CN1C(=O)CCC2[C@@H]3CC=C4C[C@@H](O)CC[C@]4(C)C3CC[C@@]21C (some centres undefined)", 1.0],
  ["COc1c(C)cc(O)cc1C=O", 1.0],
  ["CSc1ccc(-c2ccccc(=O)c2O)cc1", 1.0],
  ["C[C@]12CC[C@@H]3c4cc(OC(F)F)c(O)cc4CC[C@H]3[C@@H]1CC[C@@H]2OS(N)(=O)=O", 1.0],
  ["O=C1C(C(O)(C(F)(F)Cl)C(F)(F)Cl)CCCC1C(O)(C(F)(F)Cl)C(F)(F)Cl (centres undefined)", 1.0],
  ["CN(C)c1ccc(/C=C/c2ccnc3c(O)cccc23)cc1", 0.0],
  ["CC(OC(C)(C)C)C1NC(=O)C(CCCCNC(=O)OC(C)(C)C)NC(=O)C(Cc2c[nH]c3ccccc23)NC(=O)C(Cc2ccccc2)NC(=O)[C@H]2CCC[C@H]2NC(=O)C(Cc2ccccc2)NC1=O (some centres undefined) (cyclo([X27][ξF][ξW][ξK](Boc)[ξT](tBu)[ξF]))", 1.0],
  ["COc1cc(=O)c2c(O)c3c(O)oc(C)cc3c(OC)c2c1", 1.0],
  ["CC1(C)N=C(N)N=C(N)N1c1ccc(CCCCc2ccccc2)c(Cl)c1", 1.0],
  ["Cn1c(NNc2ccccc2)cc(=O)[nH]c1=O", 1.0],
  ["Cc1c(C)c(C)c(CC2(C)CSC2)c(CC2(C)CSC2)c1C", 1.0],
  ["NC1=CC(=O)c2cccnc2C1=O", 0.0],
  ["CC(C)(C)N1CCC1CN (centres undefined)", 1.0],
  ["CCCCCC1CC=CC(=O)O1 (centres undefined)", 0.0],
  ["CC1=NN(c2nc(N)nc(CBr)n2)C(C)(C)C1", 1.0],
  ["COc1cccc(CCC2CCCN(c3cc(C)nc(N)n3)C2)c1 (centres undefined)", 0.0],
  ["CC(=O)OCC(OC(C)=O)C(OC(C)=O)C(/C=N\\Nc1nc2ccccc2c(=O)[nH]1)=N\\Nc1nc2ccccc2c(=O)[nH]1 (centres undefined)", 1.0],
  ["CN1CCC(COc2cnc(-c3cccc(Cn4nc(-c5cccc(C#N)c5)ccc4=O)c3)nc2)CC1", 0.0],
  ["O=C(COc1ccc(/C=C2\\COc3ccccc3C2=O)cc1)Nc1nccs1", 1.0],
  ["COC(=O)[C@H](Cc1ccccc1)NC(=O)/C(=C/C(C)C)NC(=O)[C@H](CCSC)NC=O", 1.0],
  ["COC1OC(CO)C(O)C(OC(C)=O)C1NC(=O)N(CCCl)N=O (centres undefined)", 1.0],
  ["O=[N+]([O-])c1ccc(-c2cc(O)c3nc4ccccc4n3c2)cc1", 1.0],
  ["C=C=C(C(=O)OC)S(=O)c1ccccc1[N+](=O)[O-] (centres undefined)", 1.0],
  ["O=C1c2cccnc2S(=O)(=O)N1c1ccc(Oc2ccccc2)cc1", 1.0],
  ["COc1cc(/C=C2\\C[C@H]3[C@@H]4CC=C5C[C@@H](O)CC[C@]5(C)[C@H]4CC[C@]3(C)[C@H]2O)ccc1OCCN1CCCC1", 1.0],
  ["C=CCC(N[C@@H](CO)c1ccccc1)c1cn(Cc2ccccc2Cl)c(=O)n(Cc2ccccc2Cl)c1=O (some centres undefined)", 1.0]
]}

* * *

Tested on: RPMI-8226 leukemia
Experiment: NCI tumour cell line growth inhibition, 48 h
Property name: TGI

{"columns": ["Compound", "Meas value"],
 "data": [
  ["FC(F)(F)c1ccc(Cc2nc3cc4ccccc4cc3[nH]2)cc1", "> 100 µM"],
  ["CC[C@H](NC(=O)[C@H]1CCCCN1C)C(=O)N(C)[C@H](C[C@@H](OC(C)=O)c1nc(C(=O)N[C@@H](Cc2ccccc2)C[C@H](C)C(=O)O)cs1)C(C)C", "> 14.3 µM"],
  ["CCOC(=O)CCC(NC(=O)Cc1ccc(Nc2nc3ccccc3nc2-c2cccs2)cc1)C(=O)OCC (stereo not given)", "> 100 µM"],
  ["CCOC(=O)c1ccccc1OC(=O)NNc1ccccc1", "> 100 µM"],
  ["CCOC1=NC(C(F)(F)F)(C(F)(F)F)N=C(N2CCOCC2)O1", "> 100 µM"],
  ["COc1cc(C(=O)/C=C/c2ccc(OCCSCCCCCCCCCCSCCOc3ccc(/C=C/C(=O)c4cc(OC)c(OC)c(OC)c4)cc3)cc2)cc(OC)c1OC", "> 100 µM"],
  ["O=C(O)/C=C/C(=O)N1Cc2cc3ccccc3nc2C1", "> 100 µM"],
  ["CCN(CC)CCC(=O)c1ccc(Sc2ccc(F)cc2)cc1", "9.74 µM"],
  ["CCN(CC)CCNc1ccc(C)c2sc3cc(Cl)ccc3c(=O)c12", "3.86 µM"],
  ["Cn1c2ccccc2n2c3ncccc3c(=NCCCC(=O)O)c(C#N)c12", "> 100 µM"]
]}

* * *

System: DU-145 prostate
Assay: NCI tumour cell line growth inhibition, 48 h

{"columns": ["Compound", "Relational operator", "TGI (µM)"],
 "data": [
  ["C[Si](C)(C)C#Cc1cc(-c2nc3ccccc3s2)ccc1N", "=", 62.1],
  ["CC[C@H]1CN2CCc3cc(OC)c(OC)cc3C2C[C@@H]1CC1NCCc2cc(OC)c(OC)cc21 (some centres not stated)", "=", 0.105],
  ["Clc1ccc(Nc2nnc(CCCCCCCCc3nnc(Nc4ccc(Cl)cc4)o3)o2)cc1", ">", 100],
  ["CC(=O)OCC(OC(C)=O)C(OC(C)=O)C(/C=N\\Nc1nc2ccccc2c(=O)[nH]1)=N\\Nc1nc2ccccc2c(=O)[nH]1 (configuration not stated)", ">", 100],
  ["O=C1NC(=S)N/C1=C\\c1cc2c(=O)c3ccccc3sc2s1", ">", 100],
  ["O=C1c2[nH]cc(CNC3CN4CCC3CC4)c2C(=O)c2c1c(O)c1ccccc1c2O (configuration not stated)", "=", 7.21],
  ["CCOC(=O)CCC(NC(=O)Cc1ccc(Nc2nc3ccccc3nc2-c2cccs2)cc1)C(=O)OCC (configuration not stated)", ">", 100]
]}
